Quick reference: pIC50 of the listed items.
target: norepinephrine transporter (UniProt Q9WTR4); experiment: Inhibition of [3H]nisoxetine radioligand binding at the norepinephrine transporter; conditions: read-out: IC50 NE [3H]-nisoxetine; Table IV
Structures can show the parent of a compound that is named as a salt.
Answer as the number alone; pIC50 is minus log10 of concentration in mol/L.

Record excerpt, results attached:
CNC[C@H]1[C@@H](c2ccc(C)cc2)C[C@@H]2CC[C@H]1N2C [RTI-164]    6.55
Cc1ccc([C@H]2C[C@@H]3CC[C@H]([C@H]2C#N)N3C)cc1 [RTI-158, Hydrochloride]    5.79
CC(C)C1C(c2ccc(Cl)cc2)CC2CCC1N2C (centres unmarked) [RTI-4229-240]    7.07
COC(=O)OCC1C(c2ccc(Cl)cc2)CC2CCC1N2C (centres unmarked) [RTI-4229-145]    5.83

Turning to the following molecule.
The recorded pIC50 for entry Cc1ccc([C@H]2C[C@@H]3CC[C@H]([C@H]2CN)N3C)cc1 [RTI-131] equals 6.92

---

Quick reference: IC50 of the listed items.
target: norepinephrine transporter (UniProt Q9WTR4); assay: Inhibition of [3H]nisoxetine radioligand binding at the norepinephrine transporter; conditions: read-out: NEN IC50 for inhibition of radioligand binding; NEN=[3H] nisoxetine
Where a name gives a salt, the structure may show the parent alone.
API: value field is a number in µM; no unit string.

Cc1noc([C@@H]2C(c3ccccc3)CC3CCC2N3C)n1 (stereo partly drawn)    71
COC(=O)C1C2CCC(CC1c1ccc(F)cc1)N2 (stereo not drawn)    0.0188
CC(C)c1noc(C2C(c3ccc(Cl)cc3)CC3CCC2N3C)n1 (stereo not drawn)    0.135

The recorded IC50 for entry CN1C2CCC1C(c1nc(-c3ccc(Cl)cc3)no1)C(c1ccc(Cl)cc1)C2 (stereo not drawn) equals 4.07

The recorded IC50 for entry COC(=O)CC1C(c2ccc(C)cc2)CC2CCC1N2C (stereo not drawn) equals 0.124

The recorded IC50 for entry Cc1noc(C2C(c3ccc(Cl)cc3)CC3CCC2N3C)n1 (stereo not drawn) equals 0.363

The recorded IC50 for entry CN1[C@H]2CC[C@@H]1[C@@H](c1nnc(-c3ccccc3)o1)[C@@H](c1ccc(Cl)cc1)C2 [RTI-4229-188, Hydrochloride] equals 0.929

The recorded IC50 for entry COC(=O)C1C(c2ccc(C)cc2)CC2CCC1N2C (stereo not drawn) equals 0.06

The recorded IC50 for entry Cc1noc(C2C(c3ccccc3)CC3CCC2N3C)n1 (stereo not drawn) [RTI-4229-87] equals 35.8

---

Quick reference: IC50 of the listed items.
target: norepinephrine transporter (UniProt Q9WTR4); assay: Inhibition of [3H]nisoxetine radioligand binding at the norepinephrine transporter; details: read-out: NEN IC50 for inhibition of radioligand binding; NEN=[3H] nisoxetine
Counter-ions that a name gives are not always drawn.
API: value field is a number in nM; no unit string.

The compound COC(=O)OCC1C(c2ccc(Cl)cc2)CC2CCC1N2C (stereo not shown) , when measured on norepinephrine transporter (UniProt Q9WTR4), yielded IC50 of 1480

The compound Cc1cc([C@H]2[C@@H](c3ccc(I)cc3)C[C@@H]3CC[C@H]2N3C)on1 [RTI-4229-180, Hydrochloride] , when measured on norepinephrine transporter (UniProt Q9WTR4), yielded IC50 of 67.9

The compound Cc1ccc(C2CC3CCC(C2C(=O)OC(C)C)N3C)cc1 (stereo not shown) , when measured on norepinephrine transporter (UniProt Q9WTR4), yielded IC50 of 1930

The compound Cc1ccc([C@H]2C[C@@H]3CC[C@H]([C@H]2c2cc(-c4ccccc4)no2)N3C)cc1 [RTI-4229-176, Hydrochloride] , when measured on norepinephrine transporter (UniProt Q9WTR4), yielded IC50 of 398
